What activity coefficient was measured for each of the following?
measurementProtocol: activity coefficient (dimensionless); of the first substance listed, at infinite dilution; xn = mol fraction of the nth substance listed
condition: 368.15 K; 101 kPa; Liquid; Chromatography; x1 = 0
Just the number.

## Input What value of measured activity coefficient is listed for C=CCCC [1-pentene] + CC[S+](CC)CC.O=S(=O)([N-]S(=O)(=O)C(F)(F)F)C(F)(F)F ?
## Output 6.69

## Input Request the reported activity coefficient associated with O [water] + CC[S+](CC)CC.O=S(=O)([N-]S(=O)(=O)C(F)(F)F)C(F)(F)F
## Output 1.88

## Input Recorded activity coefficient for C#CCCC [1-pentyne] + CC[S+](CC)CC.O=S(=O)([N-]S(=O)(=O)C(F)(F)F)C(F)(F)F , please?
## Output 2.55

## Input Can you look up the measured activity coefficient of C=CCCCCC [1-heptene] + CC[S+](CC)CC.O=S(=O)([N-]S(=O)(=O)C(F)(F)F)C(F)(F)F for me?
## Output 12.4

Cited source: the NIST ThermoML archive (doi:10.1016/j.jct.2008.12.005)
